Recorded values, source ChEMBL document CHEMBL1201862.

tested on: SF-268; test: NCI tumour cell line growth inhibition, 48 h
Activity calls are given as the source filed them. Cut-off read from the data, not from the text of the source: active = GI50 up to about 1.1 µM and inactive = higher.
Allowed answers: class 1 (active), class 0 (inactive)

Request: Can you look up the reported call for c1ccc(CN2CCC(=NN3CCCCC3)CC2)cc1 for me?
Result: class 0

Request: Can you look up the reported call for COC(=O)C1CCC(=O)N1CN(C(C)=O)c1cccc(O)c1 (stereo not given) for me?
Result: class 0

---

system: UACC-257; assay: NCI tumour cell line growth inhibition, 48 h
Active and inactive are the calls of the source. Rule as the data show it: active = GI50 up to about 1.1 µM and inactive = higher.
readout: GI50

INSERT INTO assay_data (compound, measured_target, observed_result) VALUES
  ('Nc1nc(NC2C=C(CO)C(O)C2O)c([N+](=O)[O-])c(=O)[nH]1 (stereo not given)', 'UACC-257', '> 100 µM (inactive)'),
  ('CC(C)(C)Cc1cc(O)ccc1O', 'UACC-257', '33.3 µM (inactive)'),
  ('CC1(C)OC2C(COC(c3ccccc3)(c3ccccc3)c3ccccc3)OC(c3c[nH]c4c(N)ncnc34)C2O1 (stereo not given)', 'UACC-257', '4.68 µM (inactive)');

Attention now shifts to the item below.
Request: Please indicate recorded GI50 of Cc1c(C#N)c2ccccc2c2nc3ccccc3n12 measured with UACC-257.
Result: > 100 µM (inactive)
